# Tested on: CCRIS mutagenicity, Ames/micronucleus/aberration tests
# Test details: CCRIS mutagenicity studies
# Condition notes: Test System: AMES SALMONELLA TYPHIMURIUM; Strain/Indicator: TA1537; Metabolic Activation: RAT, LIVER, S-9, AROCLOR 1254; Method: STANDARD PLATE
Active and inactive are the calls of the source. No rule for the calls is given here.
Returns: one label drawn from T = active, F = inactive

Answer briefly: the call reported for O=NO in this assay.
F

Answer briefly: the call reported for COC(=O)[C@@H]1O[C@@H]1c1ccccc1 in this assay.
F

* * *

# Tested on: CCRIS mutagenicity, Ames/micronucleus/aberration tests
# Test details: CCRIS mutagenicity studies
# Condition notes: Test System: AMES SALMONELLA TYPHIMURIUM; Strain/Indicator: TA1535; Metabolic Activation: RAT, LIVER, S-9, AROCLOR 1254; Method: STANDARD PLATE
Calls of active or inactive are those of the source. How the calls were made is not given here.
Quantity measured: mutagenic call

[[record]]
compound = "CC(C)=CC1C(C(=O)OCc2coc(Cc3ccccc3)c2)C1(C)C (stereo not drawn)"
quantity_measured = "mutagenic call"
assay_value = "inactive; negative"

[[record]]
compound = "CC(C)(C#N)C(C)(C)C#N"
quantity_measured = "mutagenic call"
assay_value = "inactive; negative"

[[record]]
compound = "O=CC(O)C(O)C(O)C(O)COC1OC(COC2OC(CO)C(O)C(O)C2O)C(O)C(O)C1O (stereo not drawn)"
quantity_measured = "mutagenic call"
assay_value = "inactive; negative"


* * *

# Test system: CCRIS mutagenicity, Ames/micronucleus/aberration tests
# Test details: CCRIS mutagenicity studies
# Condition notes: Test System: AMES SALMONELLA TYPHIMURIUM; Strain/Indicator: TA1535; Metabolic Activation: NONE; Method: STANDARD PLATE
# From the text: The CCRIS database contains chemical records with carcinogenicity, mutagenicity, tumor promotion, and tumor inhibition test results. It was developed by the National Cancer Institute (NCI). Data are derived from studies cited in primary journals, current awareness tools, NCI reports, and other sources. Test results have been reviewed by experts in carcinogenesis and mutagenesis. CCRIS provides historical information from the years 1985 - 2011. It is no longer updated. […]
Calls of active or inactive are those of the source. How the calls were made is not given here.
Quantity measured: mutagenic call

[[record]]
compound = "CCCON=O"
assay_value = "active; positive"

[[record]]
compound = "O=S1(=O)CCCO1"
assay_value = "active; positive"

[[record]]
compound = "Cc1cc(C(=O)NNCc2ccccc2)no1"
assay_value = "inactive; negative"

[[record]]
compound = "c1ccc(CCC2CO2)cc1 (centres undefined)"
assay_value = "active; positive"

[[record]]
compound = "COc1cccc2c1ccc1c(C(=O)O)cc3c(c12)OCO3"
assay_value = "inactive; negative"

[[record]]
compound = "CC(C)CCNc1snc2ccccc12"
assay_value = "inactive; negative"

[[record]]
compound = "CNNC"
assay_value = "inactive; negative"

[[record]]
compound = "CC(C)=CC1C(C(=O)OCc2cccc(Oc3ccccc3)c2)C1(C)C (centres undefined)"
assay_value = "inactive; negative"


Requested read-out: mutagenic call. Entry: ON=C1CCCCC1
inactive; negative

Requested read-out: mutagenic call. Entry: CCCCCCCCCCCCCc1ccccc1
inactive; negative

Requested read-out: mutagenic call. Entry: [O-]/[N+](=N\O)c1ccccc1
inactive; negative

Requested read-out: mutagenic call. Entry: COP(=S)(OC)SCC(=O)N(C)C=O
inactive; negative

Requested read-out: mutagenic call. Entry: Cc1ccc(C(=O)c2cc(O)c(O)c([N+](=O)[O-])c2)cc1
inactive; negative

Requested read-out: mutagenic call. Entry: O=C(CCl)c1ccc(Cl)cc1Cl
inactive; negative

Requested read-out: mutagenic call. Entry: CCN(CC)CC#CC(C)(C)OC(=O)C(O)(c1ccccc1)C1CCCCC1 (centres undefined)
inactive; negative
